Origin of measurements: patent US4994488A

Give measured LC50 2-SM A (adults) for each item. Keep answers brief.
# Tested on: two-spotted mite [Tetranychus urticae (Koch)], adults
# test_name: Two-spotted mite acaricidal test, adults (2SM-A)
# Assay type: in vivo
# condition: percent of test compound in solution, 5-7 days

Known LC50 2-SM A (adults) results, listed for orientation:
CC(C)(C)c1ccc(N=C(OCc2cccc(Oc3ccc(F)cc3)c2)C2CC2)cc1 : 0.02%
FC(F)(F)c1ccc(N=C(OCc2cccc(Oc3ccccc3)c2)C2CC2)c(Cl)c1 : > 0.05%
CC1CC1C(=Nc1ccc(Cl)cc1)OCc1cccc(Oc2ccccc2)c1 (stereo not shown) : > 0.05%

Return reported LC50 2-SM A (adults) values for all items listed beneath this line.
1. Fc1ccc(COC(=Nc2ccc(C(F)(F)F)cc2)C2CC2)cc1Oc1ccccc1
2. FC(F)(F)c1ccc(N=C(OCc2cccc(Oc3ccccc3)c2)C2CC2)cc1
3. c1ccc(Oc2cccc(COC(=Nc3ccc4c(c3)OCO4)C3CC3)c2)cc1
4. FC(F)(F)Oc1ccc(N=C(OCc2cccc(Oc3ccccc3)c2)C2CC2)cc1

Result:
["< 0.05%", "0.01%", "> 0.05%", "0.01%"]

For each of the compounds below, state LC50 2-SM A (adults).
1. Clc1cccc(N=C(OCc2cccc(Oc3ccccc3)c2)C2CC2)c1
2. Clc1ccc(N=C(OCc2cccc(Oc3ccccc3)c2)C2CC2)cc1
3. CC1(C)C(C(=Nc2ccc(F)c(Cl)c2)OCc2cccc(Oc3ccccc3)c2)C1(C)C
4. CC1(C(=Nc2ccc(Cl)cc2)OCc2cccc(Oc3ccccc3)c2)CC1

Result:
1: > 0.05%; 2: 0.01%; 3: 0.05%; 4: > 0.05%

For each of the compounds below, note its LC50 2-SM A (adults).
1. Fc1ccc(Oc2cccc(COC(=Nc3ccc(F)c(Cl)c3)C3CC3)c2)cc1
2. Fc1ccc(N=C(OCc2cccc(Oc3ccccc3)c2)C2CC2)cc1
3. Fc1ccc(COC(=Nc2ccc(C(F)(F)F)cc2)C2CC2)cc1Oc1ccc(Cl)cc1
4. Fc1ccc(N=C(OCc2cccc(Oc3ccccc3)c2)C2CC2)cc1Cl
5. FC(F)(F)c1cccc(N=C(OCc2cccc(Oc3ccccc3)c2)C2CC2)c1

Result:
1. > 0.05%
2. 0.05%
3. > 0.05%
4. > 0.05%
5. > 0.05%
